test: Pharmacokinetic study in serum and brain; assay type: in vivo, mice; settings: male, CD-1, mouse, po; serum, p.o. 25 mg/kg, mice; read-out: λz (converted)
READOUT: k el (s⁻¹)
All answers are understood in s⁻¹, so give the number only.

## Input Reported k el, compound CC(=O)NC(C)C(=O)N1CCN(c2cccc(OC(F)(F)F)c2)CC1 (stereo not shown) : ____
## Output 0.0002

---

assay: Pharmacokinetic study in serum and brain; assay type: in vivo, mice; conditions: male, CD-1, mouse, ip; serum, i.p. 50 mg/kg, mice
READOUT: CL/F (mL/min/kg)
All answers are understood in mL/min/kg, so give the number only.

## Input Reported CL/F, molecule CC(=O)NC(C)C(=O)N1CCN(c2cccc(OC(F)(F)F)c2)CC1 (stereo not shown) : ____
## Output 48

---

assay: Pharmacokinetic study in serum and brain; type: in vivo, mice; details: male, CD-1, mouse, po; brain, p.o. 25 mg/kg, mice; read-out: λz (converted)
READOUT: k el (s⁻¹)
All answers are understood in s⁻¹, so give the number only.

## Input Reported k el, compound CC(=O)NC(C)C(=O)N1CCN(c2cccc(OC(F)(F)F)c2)CC1 (stereo not shown) : ____
## Output 0.000117

---

target: hERG potassium channel (Homo sapiens); construct: Eurofins (contract assay); experiment: hERG potassium channel binding; conditions: HEK-293 cells expressing human recombinant hERG, human recombinant HEK-293 cell, read-out: % inhibition of control specific binding
Sequence (Q12809 whole entry): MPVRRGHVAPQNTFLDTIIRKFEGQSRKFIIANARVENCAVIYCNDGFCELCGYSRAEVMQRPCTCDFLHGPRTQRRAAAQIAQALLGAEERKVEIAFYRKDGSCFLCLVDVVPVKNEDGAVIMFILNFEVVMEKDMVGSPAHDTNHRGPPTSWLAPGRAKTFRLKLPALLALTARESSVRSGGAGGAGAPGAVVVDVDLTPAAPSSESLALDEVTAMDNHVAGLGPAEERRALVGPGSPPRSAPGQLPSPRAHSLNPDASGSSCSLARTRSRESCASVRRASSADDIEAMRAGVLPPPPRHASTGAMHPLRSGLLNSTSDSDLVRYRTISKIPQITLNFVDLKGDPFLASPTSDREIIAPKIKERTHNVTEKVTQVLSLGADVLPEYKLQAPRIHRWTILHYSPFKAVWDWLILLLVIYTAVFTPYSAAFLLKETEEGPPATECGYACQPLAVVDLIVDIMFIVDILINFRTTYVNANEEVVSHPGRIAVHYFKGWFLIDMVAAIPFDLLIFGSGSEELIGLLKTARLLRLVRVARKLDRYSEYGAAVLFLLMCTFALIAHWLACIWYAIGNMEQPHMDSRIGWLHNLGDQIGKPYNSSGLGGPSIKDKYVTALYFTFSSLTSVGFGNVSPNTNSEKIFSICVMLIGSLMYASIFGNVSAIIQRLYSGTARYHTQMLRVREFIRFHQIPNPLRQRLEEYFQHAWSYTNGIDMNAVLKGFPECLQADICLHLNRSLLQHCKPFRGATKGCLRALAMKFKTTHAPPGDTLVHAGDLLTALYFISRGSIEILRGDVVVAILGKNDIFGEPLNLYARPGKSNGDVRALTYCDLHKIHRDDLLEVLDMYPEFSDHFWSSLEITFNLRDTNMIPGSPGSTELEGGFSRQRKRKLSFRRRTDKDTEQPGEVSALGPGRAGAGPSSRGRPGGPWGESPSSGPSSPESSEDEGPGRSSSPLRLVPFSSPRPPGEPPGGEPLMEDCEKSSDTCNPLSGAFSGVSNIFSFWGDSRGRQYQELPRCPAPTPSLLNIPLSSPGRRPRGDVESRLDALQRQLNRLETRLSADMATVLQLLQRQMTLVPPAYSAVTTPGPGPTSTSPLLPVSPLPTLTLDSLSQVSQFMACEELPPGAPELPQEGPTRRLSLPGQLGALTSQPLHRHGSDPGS
READOUT: inhibition at 100 µM (%)
All answers are understood in %, so give the number only.

## Input State its inhibition at 100 µM on hERG potassium channel (Homo sapiens): CC(=O)NC(C)C(=O)N1CCN(c2cccc(OC(F)(F)F)c2)CC1 (stereo not shown)
## Output 12.9

---

assay: Pharmacokinetic study in serum and brain; format: in vivo, mice; conditions: male, CD-1, mouse, ip; serum, i.p. 25 mg/kg, mice; read-out: tmax (converted)
READOUT: Tmax (min)
All answers are understood in min, so give the number only.

## Input Reported Tmax, molecule CC(=O)NC(C)C(=O)N1CCN(c2cccc(OC(F)(F)F)c2)CC1 (stereo not shown) [Compound 28] : ____
## Output 5

---

experiment: Pharmacokinetic study in serum and brain; assay type: in vivo, mice; details: male, CD-1, mouse, ip; serum, i.p. 50 mg/kg, mice; read-out: tmax (converted)
READOUT: Tmax (min)
All answers are understood in min, so give the number only.

## Input Reported Tmax, compound CC(=O)NC(C)C(=O)N1CCN(c2cccc(OC(F)(F)F)c2)CC1 (stereo not shown) [Compound 28] : ____
## Output 5

---

test: Pharmacokinetic study in serum and brain; type: in vivo, mice; conditions: male, CD-1, mouse, po; brain, p.o. 25 mg/kg, mice
READOUT: MRT (h)
All answers are understood in h, so give the number only.

## Input Reported MRT, compound CC(=O)NC(C)C(=O)N1CCN(c2cccc(OC(F)(F)F)c2)CC1 (stereo not shown) : ____
## Output 1.84

---

test: Pharmacokinetic study in serum and brain; format: in vivo, mice; details: male, CD-1, mouse, ip; brain, i.p. 50 mg/kg, mice; read-out: tmax (converted)
READOUT: Tmax (min)
All answers are understood in min, so give the number only.

## Input Reported Tmax, compound CC(=O)NC(C)C(=O)N1CCN(c2cccc(OC(F)(F)F)c2)CC1 (stereo not shown) : ____
## Output 5

Cited source for all entries: paper PMC11157491
